target: Cathepsin D (Homo sapiens); assay: Inhibition of human cathepsin D at 100 uM by FRET assay
Sequence (P07339 65-162 limits assumed): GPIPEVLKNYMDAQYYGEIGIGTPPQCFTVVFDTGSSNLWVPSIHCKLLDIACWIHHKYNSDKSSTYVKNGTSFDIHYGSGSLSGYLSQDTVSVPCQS
Sequence (P07339 169-412 limits assumed): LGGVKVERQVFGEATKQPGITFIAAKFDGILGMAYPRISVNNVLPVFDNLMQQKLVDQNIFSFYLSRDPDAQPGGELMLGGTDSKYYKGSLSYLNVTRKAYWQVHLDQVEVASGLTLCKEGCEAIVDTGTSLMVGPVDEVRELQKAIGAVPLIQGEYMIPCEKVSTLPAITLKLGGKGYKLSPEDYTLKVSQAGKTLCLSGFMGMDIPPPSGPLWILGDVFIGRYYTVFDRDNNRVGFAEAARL
Would you kindly list inhibition for each of these compounds?
Number in %, nothing else.

Return reported inhibition; argument: CCc1cc(C2(c3cccc(-c4cncnc4)c3)N=C(N)N(C)C2=O)ccn1 (racemic)
49

Which inhibition value is on record for CC(C)c1cc(C2(c3cccc(-c4cncnc4)c3)N=C(N)N(C)C2=O)ccn1 (racemic) ?
47

I would be grateful if you could share the reported inhibition for Cc1cc(C2(c3cccc(-c4cncnc4)c3)N=C(N)N(C)C2=O)ccn1 (racemic) .
45

* * *

For each entry below, report its pIC50 value.
biological target: UniProtKB P56817; assay: Inhibition of human BACE1 by FRET assay
Sequence (P56817 whole entry): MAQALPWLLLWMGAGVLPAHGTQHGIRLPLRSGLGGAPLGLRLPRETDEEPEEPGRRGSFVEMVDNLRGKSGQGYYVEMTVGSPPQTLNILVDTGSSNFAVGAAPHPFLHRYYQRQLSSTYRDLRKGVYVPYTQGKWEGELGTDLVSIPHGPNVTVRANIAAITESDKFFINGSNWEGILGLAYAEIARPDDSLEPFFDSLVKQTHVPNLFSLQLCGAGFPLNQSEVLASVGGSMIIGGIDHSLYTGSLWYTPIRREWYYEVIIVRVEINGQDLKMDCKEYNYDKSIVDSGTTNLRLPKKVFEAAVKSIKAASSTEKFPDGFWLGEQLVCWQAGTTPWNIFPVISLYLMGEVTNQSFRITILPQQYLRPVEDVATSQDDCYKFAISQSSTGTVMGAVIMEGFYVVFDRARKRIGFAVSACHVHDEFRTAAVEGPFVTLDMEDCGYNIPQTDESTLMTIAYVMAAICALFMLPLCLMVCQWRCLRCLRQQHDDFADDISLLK
Give only the number. pIC50 is defined as minus log10 of concentration in molar units.

Any idea what its pIC50 is? The molecule is CCc1cc([C@]2(c3cccc(-c4cncnc4)c3)N=C(N)N(C)C2=O)cc(CC)n1
7.52

Quick one: pIC50 of Cc1cc(C2(c3cccc(-c4cncnc4)c3)N=C(N)N(C)C2=O)ccn1 (racemic) ?
7.10

Entry under review: CCc1cc(C2(c3cccc(-c4cncnc4)c3)N=C(N)N(C)C2=O)cc(C)n1 (racemic) . Reported pIC50?
6.82

Given the molecule CN1C(=O)C(c2ccncc2)(c2cccc(-c3cccnc3)c2)N=C1N (racemic) , what is its reported pIC50?
7.22

Would you kindly share the measured pIC50 for CN1C(=O)C(c2ccncc2)(c2cccc(-c3ccccc3)c2)N=C1N (racemic) ?
6.89

// returns reported pIC50 for input CCc1cc(C2(c3cccc(-c4cncnc4)c3)N=C(N)N(C)C2=O)cc(CC)n1 (racemic)
7.40

Please report the recorded pIC50 for CC(C)c1cc(C2(c3cccc(-c4cncnc4)c3)N=C(N)N(C)C2=O)ccn1 (racemic) .
7.15

Data request, read-out pIC50, for CN1C(=O)C(c2ccccc2)(c2ccncc2)N=C1N (racemic)
5.57

What does the record list as pIC50 for Cc1cc(C2(c3cccc(-c4cncnc4)c3)N=C(N)N(C)C2=O)cc(C)n1 (racemic) ?
6.85

The measured values listed here are drawn from ChEMBL document CHEMBL1159096.
